Exercise: state measured self-cleavage for each of the variants provided.
B1: HDV Ribozyme (parent)
chain: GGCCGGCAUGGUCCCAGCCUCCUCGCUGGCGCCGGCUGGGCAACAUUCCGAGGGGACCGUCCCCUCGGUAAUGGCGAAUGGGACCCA

Variants of: B1
Test details: self-cleavage, relative activity (ratio to wild type); higher = more cleavage; co-transcriptional
Numbers only.

Example entries begin here.
Mut	Reported property	Data value
G11A G53A	self-cleavage	0.437
C30G G53C	self-cleavage	0.237

Please state, for each entry, its recorded self-cleavage.
1. G29U G40U
2. U37G C48U
3. U12C G17U

1. 0.0923
2. 0
3. 0.308

Please state, for each entry, its recorded self-cleavage.
1. C7G U27G
2. A45C C61G
3. U20G A70G
4. A16G G82A
5. A8U G25A

[0.256, 0.6, 0.312, 0.453, 0]
